system_tested: T1, EGFR on CHO cells (CHO-EGFR) (UniProt P00533 25-1210, limits assumed)
T1 construct: whole, on cells
assay_name: FACS on CHO-EGFR cells, purified IgG, R-PE anti-mouse IgG

{"binder": "PO-1G2-B6 (antibody, V domains shown, Purified mouse IgG from a hybridoma; also called PO-1G2-B6-HC; PO-1G2-B6-LC) VH: EVQLQQSGPELVKPGASVKISCKASGYSFTGYHIHWMKQSHVESLEWIGRINPYSGVTDYNQNFKDKANLTVDQSSSTAYMELHSLTSEDSAFYYCARTDYYGPWFAYWGQGTLVTVSA VL: DIQMTQSPLSLPVSLGDQASISCRSSPSLVHSNGNTYLHWYLQKPGQSPKLLIYTVSNRFSGVPDRFSGSGSGTDFTLKINRVEAEDLGVYFCSQTTHVPWTFGGGTKLEIKR", "binding result": "no binding"}
{"binder": "PO-1C9-C4 (antibody, V domains shown, Purified mouse IgG from a hybridoma; also called PO-1C9-C4-HC; PO-1C9-C4-LC) VH: QVQLQQPGSELVRPGASVKLSCKASGYTFTIFWIHWVKQRPGQGLEWIGNIYPGSGGTNYDEKFKSKATLTVDTFSSTAYMQLSSLTSEDSAVYYCTRWGTGKDYWGQGTTLTVSS VL: DIVLTQSPAIMSASPGEKVTMTCRARSSVSSSYLHWYQQKPGSSPKLWIYSTSNLALGVPARFSGSGSGTSYSLTISSVEAEDAATYYCQQYDSSPFTFGTGTKLEIKR", "binding result": "no binding"}
{"binder": "588E10 (antibody, V domains shown, Purified mouse IgG from a hybridoma; also called 588E10-HC; 588E10-LC) VH: EVQLQQSGPKLVGPGESVKISCKGSGYTFTDYGMHWVKQSHAKRLEWIGVITIYDGHTNYNQNFKGKAALTVDKSSNTAYLELARMTSEDSAIYYCARGDYDLFWYLDVWGAGTTLTVSS VL: DVVMTQTPLSLTVSLGDQASISCRSSQNIKHSDGNTYLEWYLQKPGQSPKLLIYKVSNRFSGVPDRFSGSGSGTDFTLKISRVEAEDLGVYFCFQGSHVPLTFGAGTKLELKR", "binding result": "no binding"}

Reference for the values: patent US20120195831A1
